# ASSAY PROTOCOL: TLR3 IRF3 reporter activation blockers – cell-based, poly I:C stimulus, luciferase, 10K MLSCN set, primary screen (AID 602277)
# PROTOCOL CONDITIONS: HEK293-TLR3 RL24 IRF3 luciferase reporter, at 10 µM
Active and inactive are the calls of the source.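 The calls were made as follows: active = inhibition of the reporter signal at or above 50%; inactive = inhibition below 50%.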
Please state which outcome applies, choosing from 1 (active), -1 (inactive)

- MOLECULE: "CC(C(=O)N1CCCCC1)n1ncn2cccc2c1=O (stereo not given)"
  ASSIGNED CLASS: 1
- MOLECULE: "CC(C)=CC/C=C1\\CCC(C(=O)O)C(C(=O)O)C1 (stereo not given)"
  ASSIGNED CLASS: -1
- MOLECULE: "CN1Cc2c(N)cccc2C(c2ccccc2)C1 (stereo not given)"
  ASSIGNED CLASS: -1

Q. Hey, what did the test say about c1ccc2c(c1)Cn1c-2nc2ccccc21 ?
A. -1

Q. Hey, what did the test say about CCC(Sc1ccc(C(=O)O)cc1)C(=O)O (stereo not given) ?
A. -1

---

# ASSAY TARGET: Voltage-gated potassium channel subunit beta-2 (Rattus norvegicus) (UniProt P62483)
# Sequence (P62483 whole entry, looked up): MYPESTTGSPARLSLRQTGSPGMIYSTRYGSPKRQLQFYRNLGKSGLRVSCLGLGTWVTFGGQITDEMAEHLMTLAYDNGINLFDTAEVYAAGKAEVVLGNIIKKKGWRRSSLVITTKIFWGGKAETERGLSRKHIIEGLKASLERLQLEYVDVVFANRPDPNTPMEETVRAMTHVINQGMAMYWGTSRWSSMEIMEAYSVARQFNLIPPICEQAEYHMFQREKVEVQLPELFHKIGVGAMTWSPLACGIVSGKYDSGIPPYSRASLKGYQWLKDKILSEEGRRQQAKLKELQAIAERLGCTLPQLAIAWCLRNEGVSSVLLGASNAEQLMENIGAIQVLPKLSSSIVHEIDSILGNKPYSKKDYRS
# ASSAY PROTOCOL: enhancers of rat Kvbeta2 NADPH turnover – biochemical, NADPH fluorescence, primary screen (AID 623);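 also: fluorescence intensity change per second fitted from 20 to 320 s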
# PROTOCOL CONDITIONS: Recombinant KvBeta, NADPH fluorescence decrease slope, 10 min; at 10 µM; stronger effect = lower value
Each entry below carries its recorded NADPH fluorescence slope.
Lab note: write the figure by itself, no unit.

Below, each entry is followed by its recorded NADPH fluorescence slope result.
- MOLECULE: "Cc1ccc(S(=O)(=O)N2CCCC2)cc1S(=O)(=O)N1CCCC1"
  NADPH fluorescence slope: "-1.2e-05"
- MOLECULE: "CCOC(=O)C(CC)Sc1ncnc2nc[nH]c12 (stereo not drawn)"
  NADPH fluorescence slope: "-2.8e-05"
- MOLECULE: "O=c1[nH]c2ccc(S(=O)(=O)N3CCN(C4CCCCC4)CC3)cc2[nH]c1=O"
  NADPH fluorescence slope: -0.000259
- MOLECULE: "N#CCc1nc(CSc2nc3ccccc3s2)cs1"
  NADPH fluorescence slope: "-2.5e-05"
- MOLECULE: "COc1ccc(OC)c(NC(=O)Cc2coc3ccc(C)cc23)c1"
  NADPH fluorescence slope: "-3.1e-05"
- MOLECULE: "Cc1nnc(SCC(=O)Nc2ccc3c(c2)OCCO3)n1CC1CCCO1 (stereo not drawn)"
  NADPH fluorescence slope: "-5.6e-05"
- MOLECULE: "COC(=O)c1ccc(CSc2ncnc3c2nnn3-c2ccc(OC)cc2)o1"
  NADPH fluorescence slope: "-2.7e-05"
- MOLECULE: "O=C(O)C1CC(=O)N(c2ccc(OCc3c(F)cccc3Cl)cc2)C1 (stereo not drawn)"
  NADPH fluorescence slope: "-2.6e-05"

Q. // NADPH fluorescence slope lookup, key: CCOC(=O)CCC(=O)c1c(C)oc2ccc(OC)cc12
A. 4e-05

Q. // NADPH fluorescence slope lookup, key: CCOC(=O)c1sc2nc3c(cc2c1N)COC(C)(C)C3
A. -5.4e-06

Q. // NADPH fluorescence slope lookup, key: CCOC(=O)c1c(NC(=O)c2ccoc2C)sc2c1CCC2
A. -1.2e-05

Q. // NADPH fluorescence slope lookup, key: CCn1c(NCc2ccc(N(C)C)cc2)nc2ccccc21
A. -2.4e-05

Q. // NADPH fluorescence slope lookup, key: Cc1cc(NC(=O)c2ccccc2Oc2ccccc2)no1
A. -6.9e-05

Q. // NADPH fluorescence slope lookup, key: Cc1csc(SCC(=O)NC(=O)NCc2ccccc2)n1
A. 9.9e-05

---

# ASSAY TARGET: Voltage-gated potassium channel subunit beta-2 (Rattus norvegicus)
# ASSAY PROTOCOL: enhancers of rat Kvbeta2 NADPH turnover – biochemical, NADPH fluorescence, primary screen (AID 623);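 also: fluorescence intensity change per second fitted from 20 to 320 s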
# PROTOCOL CONDITIONS: Recombinant KvBeta, NADPH fluorescence decrease slope, 10 min; at 10 µM; stronger effect = lower value
READOUT NAME: NADPH fluorescence slope
Lab note: write the figure by itself, no unit.

Q. What reported NADPH fluorescence slope corresponds to Cc1cc(Cl)c(S(=O)(=O)NC2CCCCC2)cc1OCC(=O)Nc1nncs1 on Voltage-gated potassium channel subunit beta-2 (Rattus norvegicus)?
A. -3.4e-05

---

# ASSAY PROTOCOL: blockers of RIG-like receptor reporter activation – cell-based, Sendai virus stimulus, luciferase, 10K MLSCN set, TLR/RLR signaling modifier project, primary screen (AID 602276);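 also: firefly luciferase from ISG56 promoter only with Renilla not read in this screen; 0% = Sendai virus plus DMSO and 100% = medium plus DMSO without virus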
# PROTOCOL CONDITIONS: HEK293 RL24 IRF3 luciferase reporter, at 10 µM, stronger effect = higher value
Active and inactive are the calls of the source.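 How the source made its calls: active means inhibition at or above 50% at 10 µM; inactive means inhibition below 50%.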
Each entry below carries its recorded inhibition.

Below, each entry is followed by its recorded inhibition result.
- MOLECULE: "COC(=O)Cn1c(C)nc2c(sc3nc(C)cc(C)c32)c1=O"
  EXPERIMENTAL RESULT: "-40.7% (inactive)"
- MOLECULE: "CCOC(=O)c1nnn(CC(=O)Nc2cccc(OC)c2)c1C(=O)OCC"
  EXPERIMENTAL RESULT: "9.94% (inactive)"
- MOLECULE: "CCOc1ccc(CCNC(=O)CCc2nc(-c3ccc(OC)cc3)no2)cc1OCC"
  EXPERIMENTAL RESULT: "12.2% (inactive)"

Q. // inhibition lookup, key: CC(=O)CC(=O)Nc1ccccc1NC(C)=O
A. 14.2% (inactive)

Q. // inhibition lookup, key: COC(=O)C1(C)NC(c2ccco2)C2C(=O)N(c3ccc(C)cc3)C(=O)C21 (stereo unspecified)
A. 14.7% (inactive)

Q. // inhibition lookup, key: COc1ccc(CNc2nc3nc(C)cc(C)n3n2)cc1OC
A. 13.3% (inactive)

---

Each entry below carries its recorded cell count.
# ASSAY PROTOCOL: inhibitors of TNFa-induced NFkB p65 translocation, primary screen, imaging, HUVEC, MLSMR starter and 10KST1 sets (AID 438);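 also: compound added about 3h40 before a 20 min TNFalpha stimulation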
# PROTOCOL CONDITIONS: HUVEC TNFa-induced p65 nuclear translocation; measured here: nuclei count (cytotoxicity indicator), at 2.08 µM
Lab note: write the figure by itself, no unit.

Below, each entry is followed by its recorded cell count result.
- COMPOUND: "CC(=O)Nc1nc(C)c(-c2csc(Nc3ccc(O)cc3)n2)s1"
  cell count: 547
- COMPOUND: "CCOCCCNC(=O)CCNS(=O)(=O)c1ccc(C)cc1"
  cell count: 547
- COMPOUND: "CC1CCc2nc(NC(=O)CN3CCN(Cc4ccc5c(c4)OCO5)CC3)sc2C1 (stereo not drawn)"
  cell count: 641
- COMPOUND: "CCCn1c(NCc2cc(C)ccc2O)nc2ccccc21"
  cell count: 369
- COMPOUND: "Cc1ccc2nc(NC(=O)C3CCN(S(=O)(=O)c4cccc5nsnc45)CC3)sc2c1"
  cell count: 540
- COMPOUND: "CCCn1nc(NS(=O)(=O)c2ccccc2)c2cc3ccccc3nc21"
  cell count: 468
- COMPOUND: "CCSc1nnc(NC(=O)c2cc(C)oc2C)s1"
  cell count: 352
- COMPOUND: "Cn1c(=O)c2ncn(CC(=O)NCCOc3ccccc3)c2n(C)c1=O"
  cell count: 503

Q. // cell count lookup, key: O=C(c1ccc2c(c1)OCO2)N1CCNc2ccccc2C1
A. 518

Q. // cell count lookup, key: C=CCC(Nc1ccco1)c1ccccc1 (stereo not drawn)
A. 393

Q. // cell count lookup, key: Cc1ccc(-n2c(=O)[nH]c3c(C(N)=O)nc(CC(C)C)nc32)cc1
A. 297

Q. // cell count lookup, key: Cc1ccc(CCNC(=O)Cn2cccc2)cc1
A. 349

Q. // cell count lookup, key: O=C(COC(=O)c1ccco1)NCc1cccs1
A. 516

Q. // cell count lookup, key: O=S(=O)(NCCSc1ccccc1)c1cccs1
A. 652

Q. // cell count lookup, key: N#CCSCC(=O)Nc1ccc(F)cc1
A. 511

Q. // cell count lookup, key: COc1ccc(OC)c(S(=O)(=O)Nc2ccc(C(N)=O)cc2)c1
A. 684

Q. // cell count lookup, key: Cn1c2ccccc2c2c(C(=O)NCCCN3CCCC3=O)cn(C3CCCCC3)c(=O)c21
A. 592

Q. // cell count lookup, key: CN1CCN(C(=O)CN(Cc2ccc(Cl)cc2)S(C)(=O)=O)CC1
A. 242

---

# ASSAY PROTOCOL: blockers of RIG-like receptor reporter activation – cell-based, Sendai virus stimulus, luciferase, 10K MLSCN set, TLR/RLR signaling modifier project, primary screen (AID 602276);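 also: firefly luciferase from ISG56 promoter only with Renilla not read in this screen; 0% = Sendai virus plus DMSO and 100% = medium plus DMSO without virus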
# PROTOCOL CONDITIONS: HEK293 RL24 IRF3 luciferase reporter, at 10 µM, stronger effect = higher value
Each entry below carries its recorded inhibition.
Numbers only here, please. The scale is %.

Below, each entry is followed by its recorded inhibition result.
- MOLECULE: "CCCCn1cnc2c(cnn2-c2ccc(Cl)cc2)c1=O"
  READOUT NAME: "inhibition"
  EXPERIMENTAL RESULT: -48.5
- MOLECULE: "Cc1c(C(=O)O)oc2ccc(S(=O)(=O)NCCC3=CCCCC3)cc12"
  READOUT NAME: "inhibition"
  EXPERIMENTAL RESULT: 3.33
- MOLECULE: "CCCNC(=O)C1CN(S(=O)(=O)c2ccccc2)CCN1S(=O)(=O)c1ccccc1 (stereo not given)"
  READOUT NAME: "inhibition"
  EXPERIMENTAL RESULT: 9.56

Q. // inhibition lookup, key: COc1ccc(N2CCN(C(c3cccc(OC)c3OC)c3nnnn3C3CCCC3)CC2)cc1 (stereo not given)
A. -1.29

Q. // inhibition lookup, key: COc1cc(NC(=O)Cc2cccs2)ccc1-n1cnnn1
A. 18.4

Q. // inhibition lookup, key: Cc1ccc(O)c(NC(=O)COc2cc(C)ccc2C)c1
A. -3.99

Q. // inhibition lookup, key: O=C1CC(c2ccco2)CC(O)=C1C=NCC1NCCc2ccccc21 (stereo not given)
A. 17.9
